FYI, the data here is from ChEMBL document CHEMBL2434863.

Tested on: Staphylococcus aureus
Test: Antibacterial activity against Staphylococcus aureus SR20549 clinical isolate assessed as growth inhibition by broth microdilution method
Type: functional
Assign labels as follows, please: YES for MIC below 0.5 µg/mL; NO for MIC equal to or exceeding 0.5 µg/mL.

Incoming: Does the reported MIC of CC(=O)NC[C@H]1CN(c2cc(F)c(N3CCn4c(=O)c5cc(N)cnc5n4CC3)c(F)c2)C(=O)O1 stay below 0.5 µg/mL?
Outgoing: NO

Incoming: Below 0.5 µg/mL on MIC? Entry COC(=S)NC[C@H]1CN(c2cc(F)c(N3CCn4c(=O)c5cccnc5n4CC3)c(F)c2)C(=O)O1
Outgoing: YES

Incoming: Here's an entry: CC(=S)NC[C@H]1CN(c2cc(F)c(N3CCNN(C(N)=O)CC3)c(F)c2)C(=O)O1 . Is its MIC below 0.5 µg/mL?
Outgoing: YES

Incoming: Say whether its MIC is strictly beneath 0.5 µg/mL. Entry: COC(=S)NC[C@H]1CN(c2cc(F)c(N3CCON(C(N)=O)CC3)c(F)c2)C(=O)O1
Outgoing: YES

Incoming: Input CNC(=O)N1CCN(c2c(F)cc(N3C[C@H](Cn4ccnn4)OC3=O)cc2F)CCO1 ; condition: MIC strictly below 0.5 µg/mL. Does it hold?
Outgoing: NO

Incoming: Consider O=CN1CCN(c2c(F)cc(N3C[C@H](Cn4ccnn4)OC3=O)cc2F)CCN1 . Does its MIC lie strictly below 0.5 µg/mL?
Outgoing: YES
